- Assay details: small-molecule binders of probe aInhba, primary screen, biochemical, small-molecule microarray, 635/667 nm fluorescence (AID 1148);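 also: score merges 667nm spot fluorescence with signal-to-noise for antibody binding to printed compounds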
- Conditions: higher = more signal
Measured attribute: composite z-score
A bare number is all that is needed in reply.

Below: 5 compounds and their reported composite z-score.
{"columns": ["Compound", "composite z-score"],
 "data": [
  ["C[C@@H]1ON(c2ccc(I)cc2)[C@H](c2ccc(OC(=O)OC(C)(C)C)cc2)[C@H]1C(=O)N1C(=O)OC[C@H]1Cc1ccccc1", -0.0468],
  ["CCOC(=O)C1=C[C@@H](c2ccccc2)N(S(=O)(=O)c2ccc(C)cc2)[C@H]1c1ccccc1", 0.0925],
  ["COCCCNC(=O)[C@@]1(c2ccc([N+](=O)[O-])cc2)CC(=O)N(C(C)C)[C@@H]1c1ccc(CO)cc1", 0.315],
  ["Cc1c(NC(=O)/C(C#N)=C/c2ccccc2Cl)c(=O)n(-c2ccccc2)n1C", -0.0195],
  ["O=C1O[C@H](c2ccccc2)[C@H](c2ccccc2)N2[C@H]1[C@@H](C(=O)N1CCCCCCC1)[C@]1(C(=O)Nc3ccc(C#CC4(O)CCCCCC4)cc31)[C@H]2c1ccc(O)cc1", 1.77]
]}

Consider CCCCC(=C=CC[C@H](O)c1ccc(OCCO)cc1)C[C@H](O)COCc1ccccc1 . Its measured composite z-score is -0.145

Consider O=C1OCC=C[C@H]2OC34C=CCN(c5ccc6ccccc6c5)C(=O)[C@H]3N(CCCCCO)C(=O)[C@@H]4[C@@H]12 (some centres undefined) . Its measured composite z-score is -0.0963

Consider C=CCC(OC(C)=O)[C@@H]1[C@@H](N(Cc2ccc(-c3cccc(C(F)(F)F)c3)o2)C(=O)c2cccc3ccccc23)c2cc(OCCCO)ccc2N1C(=O)Cc1ccc(OC)cc1 (some centres undefined) . Its measured composite z-score is -0.102

Consider CCOC(=O)C=Cc1ccccc1O . Its measured composite z-score is 0.0051

Consider [N-]=[N+]=Nc1ccccc1C[C@]1(C(=O)O)N=C(c2ccc(OCCCO)cc2)O[C@H]1c1ccccc1 . Its measured composite z-score is 0.189

Consider COCC1=C2[C@@H](CCc3ccccc3)OB(O)C[C@@H]2[C@@H]2C(=O)N(C)C(=O)[C@@H]2C1 . Its measured composite z-score is -0.113
